System: BCBL-1 cells
Experiment: RNA-Sequencing of compound-treated vs vehicle-treated cells
Assay type: cell-based, human
Details: gene expression, treated vs vehicle BCBL-1 cells
quantityMeasured: Ratio, PRKCB

[
  {
    "molecule": "Cc1sc2c(c1C)C(c1ccc(Cl)cc1)=N[C@@H](CC(=O)O[C@@H](C)c1ccc(C(=O)Nc3ccccc3N)cc1)c1nnc(C)n1-2",
    "valueMeasured": 0.03195
  },
  {
    "molecule": "Cc1sc2c(c1C)C(c1ccc(Cl)cc1)=N[C@@H](CC(=O)OC(C)(C)C)c1nnc(C)n1-2 [(+)-JQ1, reference compound]",
    "valueMeasured": 0.06358
  },
  {
    "molecule": "O=C(CCCCCCC(=O)Nc1ccccc1)NO [SAHA, suberoylanilide hydroxamic acid, reference compound]",
    "valueMeasured": 0.3013
  },
  {
    "molecule": "Cc1sc2c(c1C)C(c1ccc(Cl)cc1)=N[C@@H](CC(=O)O[C@H](C)c1ccc(C(=O)Nc3ccccc3N)cc1)c1nnc(C)n1-2",
    "valueMeasured": 0.02626
  }
]
